test system: OVCAR-5 complex spheroids with HUVEC/MSC, viability, % test/control; test: Anticancer human tumor OVCAR-5 cell line growth inhibition [AhR]; conditions: second compound 0.316 µM; first compound 0.316 µM; stronger effect = lower value;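 also: spheroids exposed to compounds for 7 days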;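 as to viability, T/C: 100% = DMSO vehicle control wells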
compounds and their reported viability, T/C

1) O=C(C=Cc1cccc(S(=O)(=O)Nc2ccccc2)c1)NO + Cc1ccccc1N=Nc1ccc(NC(=O)c2ccnn2C)c(C)c1	77.2%

Request: viability, T/C, test system OVCAR-5 complex spheroids with HUVEC/MSC, viability, % test/control, entry COc1cc(Nc2ncc3c(n2)-c2ccc(Cl)cc2C(c2c(F)cccc2OC)=NC3)ccc1C(=O)O + CC(CO)NC(=O)c1cc(-c2ccc(Cl)cc2)nn(-c2cnn(C)c2)c1=O
65.7%

Request: viability, T/C, test system OVCAR-5 complex spheroids with HUVEC/MSC, viability, % test/control, entry COc1cc(Nc2ncc3c(n2)-c2ccc(Cl)cc2C(c2c(F)cccc2OC)=NC3)ccc1C(=O)O + Cc1ccccc1N=Nc1ccc(NC(=O)c2ccnn2C)c(C)c1
64.2%

Request: viability, T/C, test system OVCAR-5 complex spheroids with HUVEC/MSC, viability, % test/control, entry COc1ccc([C@@H](O)c2cc(-c3ncnc4cc(N5CCOCC5)ccc34)c(F)cc2Cl)nn1 + CC(CO)NC(=O)c1cc(-c2ccc(Cl)cc2)nn(-c2cnn(C)c2)c1=O
102%

Request: viability, T/C, test system OVCAR-5 complex spheroids with HUVEC/MSC, viability, % test/control, entry CC1COCCN1c1cc(-c2ccnn2C)c2ccnc(-c3ccn[nH]3)c2n1 (stereo not drawn) + Cc1cncc(-c2nc(NCCc3c[nH]c4ccccc34)c3ncn(C(C)C)c3n2)c1
46.3%

Request: viability, T/C, test system OVCAR-5 complex spheroids with HUVEC/MSC, viability, % test/control, entry COc1cc(C2c3cc4c(cc3C(OC3OC5COC(C)OC5C(O)C3O)C3COC(=O)C23)OCO4)cc(OC)c1O (stereo not drawn) + CC(CO)NC(=O)c1cc(-c2ccc(Cl)cc2)nn(-c2cnn(C)c2)c1=O
101%

Request: viability, T/C, test system OVCAR-5 complex spheroids with HUVEC/MSC, viability, % test/control, entry Nc1ncn(C2CC(O)C(CO)O2)c(=O)n1 (stereo not drawn) + Cc1cncc(-c2nc(NCCc3c[nH]c4ccccc34)c3ncn(C(C)C)c3n2)c1
65.5%

Request: viability, T/C, test system OVCAR-5 complex spheroids with HUVEC/MSC, viability, % test/control, entry CC1(C)CCC(CN2CCN(c3ccc(C(=O)NS(=O)(=O)c4ccc(NCC5CCOCC5)c([N+](=O)[O-])c4)c(Oc4cnc5[nH]ccc5c4)c3)CC2)=C(c2ccc(Cl)cc2)C1 + CC(CO)NC(=O)c1cc(-c2ccc(Cl)cc2)nn(-c2cnn(C)c2)c1=O
113%

###

tested on: OVCAR-5 complex spheroids with HUVEC/MSC, viability, % test/control; test: Anticancer human tumor OVCAR-5 cell line growth inhibition [AhR]; settings: curve of first compound; second compound 3.16 µM;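 also: spheroids exposed to compounds for 7 days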
molecules and their reported IC50
# unit: nM | format: bare number

1. COc1cc(C2c3cc4c(cc3C(OC3OC5COC(C)OC5C(O)C3O)C3COC(=O)C23)OCO4)cc(OC)c1O (configuration not stated) + Cc1cncc(-c2nc(NCCc3c[nH]c4ccccc34)c3ncn(C(C)C)c3n2)c1	909
2. COc1ccc([C@@H](O)c2cc(-c3ncnc4cc(N5CCOCC5)ccc34)c(F)cc2Cl)nn1 + Cc1ccccc1N=Nc1ccc(NC(=O)c2ccnn2C)c(C)c1	4540
3. Nc1ccccc1NC(=O)c1ccc(CNC(=O)OCc2cccnc2)cc1 + Cc1ccccc1N=Nc1ccc(NC(=O)c2ccnn2C)c(C)c1	827
4. NS(=O)(=O)OCC1CC(n2ccc3c(NC4CCc5ccccc54)ncnc32)CC1O (configuration not stated) + CC(CO)NC(=O)c1cc(-c2ccc(Cl)cc2)nn(-c2cnn(C)c2)c1=O	174
5. Nc1ccccc1NC(=O)c1ccc(CNC(=O)OCc2cccnc2)cc1 + CC(CO)NC(=O)c1cc(-c2ccc(Cl)cc2)nn(-c2cnn(C)c2)c1=O	444
6. CC1COCCN1c1cc(-c2ccnn2C)c2ccnc(-c3ccn[nH]3)c2n1 (configuration not stated) + CC(CO)NC(=O)c1cc(-c2ccc(Cl)cc2)nn(-c2cnn(C)c2)c1=O	207

I'd like to know its IC50. The molecule in question is O=C(C=Cc1cccc(S(=O)(=O)Nc2ccccc2)c1)NO + Cc1ccccc1N=Nc1ccc(NC(=O)c2ccnn2C)c(C)c1
1030

###

system: OVCAR-5 complex spheroids with HUVEC/MSC, viability, % test/control; experiment: Anticancer human tumor OVCAR-5 cell line growth inhibition [AhR]; details: second compound 0.316 µM; first compound 0.316 µM; stronger effect = lower value;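 also: spheroids exposed to compounds for 7 days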;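 as to viability, T/C: 100% = DMSO vehicle control wells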
RECORDED ENDPOINT: viability, T/C (%)
# unit: % | format: bare number

// solved cases for viability, T/C follow
1) Nc1ccccc1NC(=O)c1ccc(CNC(=O)OCc2cccnc2)cc1 + Cc1ccccc1N=Nc1ccc(NC(=O)c2ccnn2C)c(C)c1	76.6
2) NS(=O)(=O)OCC1CC(n2ccc3c(NC4CCc5ccccc54)ncnc32)CC1O (centres undefined) + CC(CO)NC(=O)c1cc(-c2ccc(Cl)cc2)nn(-c2cnn(C)c2)c1=O	37.1

I'd like to know its viability, T/C. The molecule in question is Nc1ccn(C2OC(CO)C(O)C2(F)F)c(=O)n1 (centres undefined) + Cc1ccccc1N=Nc1ccc(NC(=O)c2ccnn2C)c(C)c1
26.4

I'd like to know its viability, T/C. The molecule in question is CC(C)c1c(-c2ccccc2)nc2c(C#N)c[nH]n2c1=O + Cc1cncc(-c2nc(NCCc3c[nH]c4ccccc34)c3ncn(C(C)C)c3n2)c1
98.5

###

compounds and their reported log10(IC50)
system: OVCAR-5 complex spheroids with HUVEC/MSC, viability, % test/control; experiment: Anticancer human tumor OVCAR-5 cell line growth inhibition [AhR]; settings: curve of first compound; second compound 1 µM;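 also: spheroids exposed to compounds for 7 days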
The figures below represent log10 of IC50, where IC50 is stated in nM.

1. NS(=O)(=O)OCC1CC(n2ccc3c(NC4CCc5ccccc54)ncnc32)CC1O (configuration not stated) + Cc1ccccc1N=Nc1ccc(NC(=O)c2ccnn2C)c(C)c1	2.15

I'd like to know its log10(IC50). The compound in question is COc1cc(Nc2ncc3c(n2)-c2ccc(Cl)cc2C(c2c(F)cccc2OC)=NC3)ccc1C(=O)O + Cc1cncc(-c2nc(NCCc3c[nH]c4ccccc34)c3ncn(C(C)C)c3n2)c1
3.44

I'd like to know its log10(IC50). The compound in question is O=C(C=Cc1cccc(S(=O)(=O)Nc2ccccc2)c1)NO + Cc1cncc(-c2nc(NCCc3c[nH]c4ccccc34)c3ncn(C(C)C)c3n2)c1
3.05

I'd like to know its log10(IC50). The compound in question is COc1cc(Nc2ncc3c(n2)-c2ccc(Cl)cc2C(c2c(F)cccc2OC)=NC3)ccc1C(=O)O + CC(CO)NC(=O)c1cc(-c2ccc(Cl)cc2)nn(-c2cnn(C)c2)c1=O
3.57

I'd like to know its log10(IC50). The compound in question is Nc1ccccc1NC(=O)c1ccc(CNC(=O)OCc2cccnc2)cc1 + CC(CO)NC(=O)c1cc(-c2ccc(Cl)cc2)nn(-c2cnn(C)c2)c1=O
2.71

I'd like to know its log10(IC50). The compound in question is O=C(C=Cn1cnc(-c2cc(C(F)(F)F)cc(C(F)(F)F)c2)n1)NNc1cnccn1 + CC(CO)NC(=O)c1cc(-c2ccc(Cl)cc2)nn(-c2cnn(C)c2)c1=O
3.43

I'd like to know its log10(IC50). The compound in question is NS(=O)(=O)OCC1CC(n2ccc3c(NC4CCc5ccccc54)ncnc32)CC1O (configuration not stated) + CC(CO)NC(=O)c1cc(-c2ccc(Cl)cc2)nn(-c2cnn(C)c2)c1=O
2.23

###

Tested on: OVCAR-5 complex spheroids with HUVEC/MSC, viability, % test/control
Assay: Anticancer human tumor OVCAR-5 cell line growth inhibition [AhR];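 also: spheroids exposed to compounds for 7 days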;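 as to viability, T/C: 100% = DMSO vehicle control wells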
Conditions: second compound 1 µM; first compound 0.01 µM; stronger effect = lower value
Text: Multicellular complex tumor spheroid response to aryl hydrocarbon receptor antagonists in combination with a variety of drugs and investigational agents in selected tumor cell lines […] Compounds. […] If the clinical Cmax for an agent had not been determined, the highest concentration tested was 10 microM (Table 1). […]
compounds and their reported viability, T/C
# unit: % | format: bare number

1) Nc1ncn(C2CC(O)C(CO)O2)c(=O)n1 (stereo not drawn) + CC(CO)NC(=O)c1cc(-c2ccc(Cl)cc2)nn(-c2cnn(C)c2)c1=O	114
2) Cn1ncnc1C1c2n[nH]c(=O)c3cc(F)cc(c23)NC1c1ccc(F)cc1 (stereo not drawn) + CC(CO)NC(=O)c1cc(-c2ccc(Cl)cc2)nn(-c2cnn(C)c2)c1=O	108

Below: the item to evaluate.
I'd like to know its viability, T/C. The compound in question is Cn1ncnc1C1c2n[nH]c(=O)c3cc(F)cc(c23)NC1c1ccc(F)cc1 (stereo not drawn) + Cc1cncc(-c2nc(NCCc3c[nH]c4ccccc34)c3ncn(C(C)C)c3n2)c1
96.4
